- EXPERIMENT_NOTES: PK and tissue distribution after single oral administration in Ba/F3-EPOR-JAK2^V617F tumor-bearing mice
- Format: in vivo
- SETUP_CONDITIONS: BALB/c nude, mouse, muscle, oral, 30 mg/kg; single; 0.5 h; read-out: FM concentration, Muscle
MEASURED_PROPERTY: concentration at 0.5 h

IN: Consider the compound shown here: Cc1cnc(Nc2ccc(N3CCC(N(C)CCO)CC3)c(F)c2)nc1-c1cnn(C(C)C)c1 [FM] What is its recorded concentration at 0.5 h?
OUT: 633 ng/g

----------
- EXPERIMENT_NOTES: PK and tissue distribution after repeated oral administration in Ba/F3-EPOR-JAK2^V617F tumor-bearing mice
- Format: in vivo
- SETUP_CONDITIONS: BALB/c nude, mouse; Plasma; repeated oral 30 mg/kg; read-out: AUC0–24 h
MEASURED_PROPERTY: AUC(0-t) (ng·h/mL)
Express it in ng·h/mL; write the number only.

IN: So what does the record say about AUC(0-t) for Cc1cnc(Nc2ccc(N3CCC(N(C)CCO)CC3)c(F)c2)nc1-c1cnn(C(C)C)c1 [FM] ?
OUT: 3740
